test system: Trichophyton mentagrophytes; test: anti-fungal growth inhibition, T. mentagrophytes; assay type: cell-based; settings: Trichophyton mentagrophytes, 168 h; T. mentagraphytes, 50 μM, one week, 30° C., OD 510 nm; read-out: Inhibition rate (50 μM)
ATTRIBUTE MEASURED: inhibition at 50 µM (%)
Reply with just the number (in %).

Worked examples, 5 molecules total:
In [3]: df
Out[3]:
                                   molecule                  system_name   attribute_measured  reported_value
0  COc1ccc(C(=O)Oc2ccc(CCc3cc(OC(=O)c4ccc(OC)cc4)cc(OC(=O)c4ccc(OC)cc4)c3)cc2)cc1  Trichophyton mentagrophytes  inhibition at 50 µM            8.01
1  O=C(Oc1ccc(CCc2cc(OC(=O)C3CCCC3)cc(OC(=O)C3CCCC3)c2)cc1)C1CCCC1  Trichophyton mentagrophytes  inhibition at 50 µM            14.7
2  CCCC(=O)Oc1ccc(CCc2cc(OC(=O)CCC)cc(OC(=O)CCC)c2)cc1  Trichophyton mentagrophytes  inhibition at 50 µM            10.4
3  O=C(Oc1ccc(CCc2cc(OC(=O)c3ccc(Cl)cc3)cc(OC(=O)c3ccc(Cl)cc3)c2)cc1)c1ccc(Cl)cc1  Trichophyton mentagrophytes  inhibition at 50 µM            6.93
4  CCOC(=O)COc1ccc(CCc2cc(OCC(=O)OCC)cc(OCC(=O)OCC)c2)cc1  Trichophyton mentagrophytes  inhibition at 50 µM            11.2

// next entry
Exercise: Please look at this molecule and report its inhibition at 50 µM: O=C(Oc1ccc(CCc2cc(OC(=O)c3ccccc3)cc(OC(=O)c3ccccc3)c2)cc1)c1ccccc1
Key: 0.44
